- System: F508delCFTR (Homo sapiens, UniProt P13569, DEL508-508)
- Construct: expressed in transfected cells; host or cells: CFBE41o- human lung-derived epithelial cells (CFBE4lo-F508delCFTR-HRP), doxycycline-inducible
- Sequence (P13569 with tags, fused parts or gaps DEL508-508): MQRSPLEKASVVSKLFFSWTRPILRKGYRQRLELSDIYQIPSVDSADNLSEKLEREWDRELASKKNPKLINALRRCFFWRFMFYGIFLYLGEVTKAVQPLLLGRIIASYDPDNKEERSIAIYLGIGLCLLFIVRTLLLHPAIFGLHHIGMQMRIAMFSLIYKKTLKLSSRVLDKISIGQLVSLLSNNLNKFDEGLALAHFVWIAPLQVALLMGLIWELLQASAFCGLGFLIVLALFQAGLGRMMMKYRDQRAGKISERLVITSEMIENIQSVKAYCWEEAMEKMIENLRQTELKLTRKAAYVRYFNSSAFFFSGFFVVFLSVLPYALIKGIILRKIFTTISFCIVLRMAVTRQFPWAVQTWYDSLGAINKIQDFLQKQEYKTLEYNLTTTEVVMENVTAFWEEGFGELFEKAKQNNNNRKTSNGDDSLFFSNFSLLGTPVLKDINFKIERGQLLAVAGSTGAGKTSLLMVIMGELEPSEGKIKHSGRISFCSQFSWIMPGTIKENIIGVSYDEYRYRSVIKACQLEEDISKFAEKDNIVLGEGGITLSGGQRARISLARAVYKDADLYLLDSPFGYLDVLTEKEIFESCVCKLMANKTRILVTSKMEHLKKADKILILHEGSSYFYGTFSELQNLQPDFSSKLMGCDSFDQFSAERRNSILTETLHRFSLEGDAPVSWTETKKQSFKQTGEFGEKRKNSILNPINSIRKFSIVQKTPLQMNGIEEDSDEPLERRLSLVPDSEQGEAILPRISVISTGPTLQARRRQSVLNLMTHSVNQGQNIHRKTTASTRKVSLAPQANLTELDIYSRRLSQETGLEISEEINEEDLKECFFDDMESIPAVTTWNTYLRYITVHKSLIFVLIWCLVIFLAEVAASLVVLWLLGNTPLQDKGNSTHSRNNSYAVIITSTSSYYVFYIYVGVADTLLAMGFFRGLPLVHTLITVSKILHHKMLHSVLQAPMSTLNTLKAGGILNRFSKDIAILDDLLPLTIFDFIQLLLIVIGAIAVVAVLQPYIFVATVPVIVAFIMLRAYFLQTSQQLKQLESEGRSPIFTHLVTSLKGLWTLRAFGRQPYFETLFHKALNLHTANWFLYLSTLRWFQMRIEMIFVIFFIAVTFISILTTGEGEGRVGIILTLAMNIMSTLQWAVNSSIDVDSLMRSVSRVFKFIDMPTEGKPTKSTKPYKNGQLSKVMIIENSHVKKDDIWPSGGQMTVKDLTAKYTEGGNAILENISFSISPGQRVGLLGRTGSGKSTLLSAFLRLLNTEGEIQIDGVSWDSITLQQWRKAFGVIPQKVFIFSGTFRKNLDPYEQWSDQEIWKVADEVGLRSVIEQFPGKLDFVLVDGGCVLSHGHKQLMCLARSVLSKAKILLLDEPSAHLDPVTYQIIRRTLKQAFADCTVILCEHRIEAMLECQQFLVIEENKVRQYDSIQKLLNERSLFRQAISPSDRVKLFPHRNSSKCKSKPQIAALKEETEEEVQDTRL
- Protocol summary: Cell Surface Expression-Horse Radish Peroxidase (CSE-HRP) Assay
- Type: cell-based
- Measurement conditions: CSE-HRP; test compound without co-corrector; read-out: EC50 (without co-corrector)
- Description: Cell Surface Expression-Horse Radish Peroxidase (CSE-HRP) Assay The development was achieved by expressing the F508delCFTR mutation along with a horseradish peroxidase (HRP) in the fourth exofacial loop, and then measuring the HRP activity using luminescence readout from these cells, CFBE4lo-F508delCFTR-HRP, that were incubated overnight with the test corrector compounds, either without or with the co-corrector. […] The raw counts from the experiment were analyzed using Accelrys® Assay Explorer v3.3. […]
pEC50: −log10 of the molar value.
I'd be grateful if you could share measured pEC50 for these entries.

Study these solved cases before continuing.
COc1cc(F)ccc1CN[C@@H]1[C@@H](C(C)(C)C)[C@H](C(=O)O)N(C(=O)OC(C)C)[C@@H]1c1ccccc1 (racemic) [II-39]
5.00 to 6.00
COc1ccc(C(C)(C)C)cc1CN[C@H]1[C@H](C(C)(C)C)[C@@H](C(=O)O)N(C(=O)c2cccnc2C)[C@H]1c1ccccc1 [II-198]
5.00 to 6.00
COc1ccc(C(C)(C)C)cc1CN[C@H]1[C@H](C(C)(C)C)[C@@H](C(=O)O)N(C(=O)CC2CCCO2)[C@H]1c1ccccc1 (stereo partly drawn) [II-235]
5.00 to 6.00
COc1ccc(C(C)(C)C)cc1CN[C@H]1[C@H](C(C)(C)C)[C@@H](C(=O)O)N(C(=O)C2CC3C=CC2C3)[C@H]1c1ccccc1 (stereo partly drawn) [II-211]
5.00 to 6.00

Each compound below has a recorded value; state its pEC50.
1. COc1ncc(C2CC3CCC2C3)cc1CN[C@H]1[C@H](C(C)(C)OC)[C@@H](C(=O)O)N(C(=O)C2CCCCC2)[C@H]1c1ccccc1 (stereo partly drawn) [II-251]
2. Cc1ccc(C)c(CN[C@H]2[C@H](C(C)(C)C)[C@@H](C(=O)O)N(C(=O)C3CCCCC3)[C@H]2c2ccccc2)c1 [II-117]
3. COc1cc(C(F)(F)F)ccc1CN[C@H]1[C@H](C(C)(C)C)[C@@H](C(=O)O)N(C(=O)[C@@H]2CCCCO2)[C@H]1c1cccc2c1OCC2 [Example I-300]
4. COc1cc(C(F)(F)F)ccc1CN[C@H]1[C@H](C(C)(C)C)[C@@H](C(=O)O)N(C(=O)C2CCCC(F)(F)C2)[C@H]1c1cccnc1OC (relative stereo) [Example I-257]
5. COc1cc(C(F)(F)F)ccc1CN[C@H]1[C@H](C(C)(C)C)[C@@H](C(=O)O)N(C(=O)[C@@H]2CCCCO2)[C@H]1c1ccccc1Br [Example I-289]

1: > 6.00; 2: 5.00 to 6.00; 3: 5.00 to 6.00; 4: 5.00 to 6.00; 5: 5.00 to 6.00

Each compound below has a recorded value; state its pEC50.
1. COc1cc(C(C)(C)C)ccc1CN[C@H]1[C@H](C(C)(C)C)[C@@H](C(=O)O)N(C(=O)C2CCCCC2)[C@H]1c1ccccc1OC(F)F [II-124]
2. COc1cc(C(F)(F)F)ccc1CN[C@@H]1[C@@H](C(C)(C)C)[C@H](C(=O)O)N(C(=O)C(C)Oc2ccccc2)[C@@H]1c1ccccc1 (single isomer, unassigned) [II-58]
3. COc1cc(C(F)(F)F)ccc1CN[C@@H]1[C@@H](C(C)(C)C)[C@H](C(=O)O)N(C(=O)[C@@H]2CCCCO2)[C@@H]1c1ccccc1 (racemic) [II-49]

1: > 6.00; 2: 5.00 to 6.00; 3: 5.00 to 6.00
